testDescription: Solubility in water
Type: physicochemical
settings: water
Structures can show the parent of a compound that is named as a salt. Where a SMILES comes first, the peptide text is derived from it. The star is where a group is joined. pNA = O=[N+]([O-])c1ccc(N*)cc1; Cbz = O=C(OCc1ccccc1)*; Bz = O=C(c1ccccc1)*
Measured solubility of individual entries

compound: CC(C)[C@H](NC(=O)[C@H](Cc1ccccc1)NC(=O)c1ccccc1)C(=O)N[C@@H](CCCNC(=N)N)C(=O)Nc1ccc([N+](=O)[O-])cc1 [N^α -Bz-Phe-Val-Arg-pNA . HCl, N^α -Bz-Phe-Val-Arg-pNA.HCl, reference compound] (Bz-Phe-Val-Arg-pNA)
result: ~1000 µg/mL

# ---- query compound ----
Query :: Need solubility, item N=C(N)NCCC[C@H](NC(=O)[C@@H]1CCCN1C(=O)CNC(=O)OCc1ccccc1)C(=O)Nc1ccc([N+](=O)[O-])cc1 [Substrate I, N^α -Cbo-Gly-Pro-Arg-pNA.HCl] (Cbz-Gly-Pro-Arg-pNA)
Result :: > 4000 µg/mL
